These data points were gathered from ChEMBL document CHEMBL3399966.

# target: cAMP-dependent protein kinase catalytic subunit alpha (Homo sapiens, UniProt P17612)
# test: Inhibition of PKAa (unknown origin)
pKi: −log10 of the molar value.
As shown below, each of these molecules has a reported pKi value.

Worked examples follow.
[
  {
    "molecule": "CC(=O)NS(=O)(=O)[C@H]1C2CCC(CC2)[C@@H]1Nc1nc(-c2c[nH]c3ncc(F)cc23)ncc1F (mixture of isomers)",
    "pKi": "< 5.40"
  },
  {
    "molecule": "O=c1[nH]c(=O)n(C[C@H]2C3CCC(CC3)[C@@H]2Nc2nc(-c3c[nH]c4ncc(F)cc34)ncc2F)o1 (mixture of isomers)",
    "pKi": "< 5.40"
  },
  {
    "molecule": "OCC(O)[C@H]1C2CCC(CC2)[C@@H]1Nc1nc(-c2c[nH]c3ncc(F)cc23)ncc1F (mixture of isomers)",
    "pKi": 6.64
  }
]

Supply measured pKi of CS(=O)(=O)[C@H]1C2CCC(CC2)[C@@H]1Nc1nc(-c2c[nH]c3ncc(F)cc23)ncc1F (mixture of isomers) in your reply.
5.82

Supply measured pKi of O=P(O)(O)CC[C@H]1C2CCC(CC2)[C@@H]1Nc1nc(-c2c[nH]c3ncc(F)cc23)ncc1F (mixture of isomers) in your reply.
< 5.40

Supply measured pKi of NS(=O)(=O)[C@H]1C2CCC(CC2)[C@@H]1Nc1nc(-c2c[nH]c3ncc(F)cc23)ncc1F (mixture of isomers) in your reply.
6.31

Supply measured pKi of O=P(O)(O)[C@H]1C2CCC(CC2)[C@@H]1Nc1nc(-c2c[nH]c3ncc(F)cc23)ncc1F (mixture of isomers) in your reply.
< 5.40

Supply measured pKi of Oc1cc([C@H]2C3CCC(CC3)[C@@H]2Nc2nc(-c3c[nH]c4ncc(F)cc34)ncc2F)on1 (mixture of isomers) in your reply.
< 5.40

Supply measured pKi of CNC(=O)[C@H]1C2CCC(CC2)[C@@H]1Nc1nc(-c2c[nH]c3ncc(F)cc23)ncc1F (mixture of isomers) in your reply.
< 5.40
